Target: CDK2 (Homo sapiens)
Construct: endogenous in cells; host or cells: MKN1 cells
Experiment: CDK2 degradation in MKN1 cells (AlphaLISA)
Assay type: cell-based
Conditions: 14 h incubation, read-out: CDK2 degradation 14 h: Mean external-Abs DC50
Exercise: for every item that follows, state its recorded DC50.

So, Cc1cc(S(=O)(=O)NCCOC2CCC(CN3CCC(c4ccc5c(c4)n(C)c(=O)n5C4CCC(=O)NC4=O)CC3)CC2)ccc1Nc1ncc2c(n1)N(C1CCCC1)C(=O)C21CC1 (centres unmarked) ? Its DC50 was < 100 nM

So, Cc1cc(S(=O)(=O)NC2CC(N3CCC4(CC3)CN(Cc3cccc5c3n(C)c(=O)n5C3CCC(=O)NC3=O)C4)C2)ccc1Nc1ncc(C(F)(F)F)c(N2CCCC(C)(O)C2)n1 (centres unmarked) ? Its DC50 was 100 to 500 nM

So, Cc1cc(S(=O)(=O)C2CC3(CCN(CC4CCN(c5ccc6c(c5F)n(C)c(=O)n6C5CCC(=O)NC5=O)CC4)CC3)C2)ccc1Nc1ncc2cc(Cl)c(=O)n(C(C)C)c2n1 (centres unmarked) ? Its DC50 was < 100 nM

So, Cn1c(=O)n(C2CCC(=O)NC2=O)c2cccc(CCCOCCOCC(=O)N3CCC(Nc4ncc5cc(C(F)F)c(=O)n([C@@H]6CCC[C@]6(C)O)c5n4)CC3)c21 (some centres unmarked) ? Its DC50 was > 1000 nM

So, Cc1cc(S(=O)(=O)NC2CCC(CN3CCN(c4ccc(C5CCC(=O)NC5=O)c(F)c4)CC3)CC2)ccc1Nc1ncc(C(F)(F)F)c(N2CCCC(C)(O)C2)n1 (centres unmarked) ? Its DC50 was < 100 nM

Return reported DC50 values for all items listed beneath this line.
1. Cc1cc(S(=O)(=O)NC2CCC(CN3CCN(c4ccc(C5CCC(=O)NC5=O)cc4)CC3)CC2)ccc1Nc1ncc(C(F)(F)F)c(N2CCCC(C)(O)C2)n1 (centres unmarked)
2. Cc1cc(S(=O)(=O)C2CC3(CCN(CC4CCN(c5cccc(NC6CCC(=O)NC6=O)c5F)CC4)CC3)C2)ccc1Nc1ncc2cc(Cl)c(=O)n(C3CCCC3)c2n1 (centres unmarked)
3. Cc1cc(S(=O)(=O)C2CC3(CCN(CC4CCN(c5cc(F)cc(NC6CCC(=O)NC6=O)c5)CC4)CC3)C2)ccc1Nc1ncc2cc(Cl)c(=O)n(C3CCCC3)c2n1 (centres unmarked)

RESULT:
1. < 100 nM
2. 100 to 500 nM
3. 100 to 500 nM
